Source listed as BindingDB's records for PubMed 2867217.

Target: Alpha-1A adrenergic receptor (Canis lupus familiaris, UniProt O77621)
Sequence (O77621 whole entry): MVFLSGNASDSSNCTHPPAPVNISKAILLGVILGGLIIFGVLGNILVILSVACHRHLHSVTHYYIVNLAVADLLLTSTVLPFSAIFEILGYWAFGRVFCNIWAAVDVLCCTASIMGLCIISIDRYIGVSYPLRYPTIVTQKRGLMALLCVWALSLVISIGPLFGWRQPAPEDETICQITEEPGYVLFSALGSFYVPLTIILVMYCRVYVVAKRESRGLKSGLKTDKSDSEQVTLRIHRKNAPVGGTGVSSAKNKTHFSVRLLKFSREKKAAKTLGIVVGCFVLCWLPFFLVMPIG
Where a name gives a salt, the structure may show the parent alone.
Entries and their measured Ki follow.

{"Molecule": "CN1CCc2cccc(Cl)c2CC1 [MLS002172470]", "Ki / nM": 1100}
{"Molecule": "COC(=O)[C@H]1[C@H]2C[C@H]3c4[nH]c5ccccc5c4CCN3C[C@H]2CC[C@@H]1O [RAUWOLSCINE HYDROCHLORIDE]", "Ki / nM": 234}
